Listed compounds paired with reported Emax
STUDY_SYSTEM: M1 muscarinic receptor (Homo sapiens)
Construct: expressed in transfected cells; host or cells: CHO cells (M1-CHO, under zeocin and G418 selection)
Sequence (P11229 whole entry): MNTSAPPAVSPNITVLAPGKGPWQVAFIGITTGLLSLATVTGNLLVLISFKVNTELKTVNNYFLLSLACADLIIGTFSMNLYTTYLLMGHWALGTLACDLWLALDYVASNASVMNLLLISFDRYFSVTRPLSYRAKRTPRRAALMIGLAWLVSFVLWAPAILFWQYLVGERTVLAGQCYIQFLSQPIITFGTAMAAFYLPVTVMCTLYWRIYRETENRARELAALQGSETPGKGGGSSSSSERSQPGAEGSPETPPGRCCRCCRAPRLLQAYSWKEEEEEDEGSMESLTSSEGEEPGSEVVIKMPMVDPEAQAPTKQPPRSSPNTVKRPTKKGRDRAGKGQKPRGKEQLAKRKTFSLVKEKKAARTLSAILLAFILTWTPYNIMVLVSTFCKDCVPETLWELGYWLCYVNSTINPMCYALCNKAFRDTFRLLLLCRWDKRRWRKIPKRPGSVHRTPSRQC
ASSAY_EXPLANATION: Functional mobilization of intracellular calcium (FLIPR, Fluo-3), M1-CHO cells
Assay type: cell-based
RECORDED_CONDITIONS: compound nos. 1-454; 100% efficacy is the maximum response obtained with the Carbachol control; read-out: M1 Efficacy

| COMPOUND | Emax |
| --- | --- |
| CCOC(=O)N1C2CCC1CC(N1CCC3(CC1)CN(C(=O)C1CC1)c1ccc(F)cc13)C2 (stereo not shown) [compound 214] | < 65% |

The recorded Emax for entry CCOC(=O)N1CCC(CN2CCC3(CC2)CN(C(C)=O)c2ccc(F)cc23)CC1 [compound 60] equals 65 to 85%

The recorded Emax for entry CCOC(=O)N1CCC(N2CCC3(CC2)CN(C(=O)c2ccccc2F)c2ccc(F)cc23)CC1 [compound 267] equals < 65%

The recorded Emax for entry CCOC(=O)N1C2CCC1CC(N1CCC3(CC1)c1ccccc1C(=O)C3(C)C)C2 (stereo not shown) [compound 278] equals 65 to 85%

The recorded Emax for entry O=C1Nc2ccccc2C12CCN(CC1CC3C=CC1C3)CC2 (stereo not shown) [compound 7] equals 65 to 85%

The recorded Emax for entry COC(=O)N1CC2(CCN(C3CC4CCC(C3)N4C(=O)O[C@H]3CCOC3)CC2)c2cc(F)ccc21 (stereo partly shown) [compound 96] equals 65 to 85%

The recorded Emax for entry CCOC(=O)N1C2CCC1CC(N1CCC3(CC1)CN(C(C)=O)c1ccccc13)C2 (stereo not shown) [compound 205] equals < 65%

Ref: patent US7858635B2
